These data points were gathered from patent US11130803B2.

molecular target: T1, recombinant human GARP-proTGFβ1 complex (Homo sapiens, UniProt P01137); experiment: Octet (Biolayer Interferometry) in vitro kinetic binding; conditions: in M
T1 construct: made in house
T1 sequence (P01137 30-390): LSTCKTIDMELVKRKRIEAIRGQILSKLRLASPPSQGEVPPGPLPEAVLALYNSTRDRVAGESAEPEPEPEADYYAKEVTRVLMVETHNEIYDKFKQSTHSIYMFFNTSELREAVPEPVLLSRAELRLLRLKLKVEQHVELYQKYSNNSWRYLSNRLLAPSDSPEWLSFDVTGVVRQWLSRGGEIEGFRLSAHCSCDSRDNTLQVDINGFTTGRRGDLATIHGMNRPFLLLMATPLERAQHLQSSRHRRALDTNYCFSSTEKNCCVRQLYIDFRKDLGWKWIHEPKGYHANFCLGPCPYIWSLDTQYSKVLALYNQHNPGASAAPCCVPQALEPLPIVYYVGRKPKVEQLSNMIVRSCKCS
T1 sequence (Q14392 20-627 partner limits assumed): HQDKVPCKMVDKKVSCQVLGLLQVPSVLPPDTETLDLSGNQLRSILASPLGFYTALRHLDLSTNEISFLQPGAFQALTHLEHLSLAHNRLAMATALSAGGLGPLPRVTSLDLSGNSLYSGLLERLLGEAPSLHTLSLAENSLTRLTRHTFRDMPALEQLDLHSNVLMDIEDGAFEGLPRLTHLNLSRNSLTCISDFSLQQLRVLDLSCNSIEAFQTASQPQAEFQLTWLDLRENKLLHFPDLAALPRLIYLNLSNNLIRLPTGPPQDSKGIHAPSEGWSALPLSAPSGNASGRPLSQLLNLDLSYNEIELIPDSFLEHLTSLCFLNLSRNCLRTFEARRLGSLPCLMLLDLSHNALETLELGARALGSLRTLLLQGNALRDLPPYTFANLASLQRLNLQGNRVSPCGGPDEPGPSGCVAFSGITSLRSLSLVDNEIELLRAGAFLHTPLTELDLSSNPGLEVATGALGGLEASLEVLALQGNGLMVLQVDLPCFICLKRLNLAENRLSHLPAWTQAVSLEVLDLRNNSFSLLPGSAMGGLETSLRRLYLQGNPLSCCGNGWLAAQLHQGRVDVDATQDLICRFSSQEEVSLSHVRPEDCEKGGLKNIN
Give measured (E) hGARP, Cell-associated proTGFb1 (KD) for each item. Keep answers brief.

MOLECULE	ASSAY_READOUT	VALUE_REPORTED
Ab18: monoclonal antibody; VH SEQ ID NO: 249, VL SEQ ID NO: 241 (antibody, V domains shown) VH: QVQLVESGGGVVQPGRSLRLSCAASGFTFSDYAMVWVRQAPGKGLEWVSAISGSGAATYFADSVKGRFTISRDNSKNTLYLQMNSLRAEDTAVYYCATVSSGHWDFDYWGQGTLVTVSS VL: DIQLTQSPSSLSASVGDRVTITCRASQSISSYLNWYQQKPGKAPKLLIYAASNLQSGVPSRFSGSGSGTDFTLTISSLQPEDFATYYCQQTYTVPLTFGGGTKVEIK	(E) hGARP, Cell-associated proTGFb1 (KD)	1.15E−08

Moving on to the next molecule.
Endpoint output: (E) hGARP, Cell-associated proTGFb1 (KD) of Ab11: monoclonal antibody; VH SEQ ID NO: 239, VL SEQ ID NO: 241 (antibody, V domains shown) VH: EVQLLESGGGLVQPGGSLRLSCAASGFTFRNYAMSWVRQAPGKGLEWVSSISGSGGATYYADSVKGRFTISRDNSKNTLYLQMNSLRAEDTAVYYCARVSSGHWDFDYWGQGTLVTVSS VL: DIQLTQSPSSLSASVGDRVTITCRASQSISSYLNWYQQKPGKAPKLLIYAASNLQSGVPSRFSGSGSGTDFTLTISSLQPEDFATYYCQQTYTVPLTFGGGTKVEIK . Value?
8.42E−10
